assay-procedure: soluble on expression in E. coli; label from the status in PepcDB or PDB records
assay-endpoint: soluble on expression in E. coli

>  <sequence-code>
MKAVVQRVTRASVTVGGEQISAIGRGICVLLGISLEDTQKELEHMVRKILNLRVFEDESGKHWSKSVMDKQYEILCVSQFTLQCVLKGNKPDFHLAMPTEQAEGFYNSFLEQLRKTYRPELIKDGKFGAYMQVHIQNDGPVTIELESPAPGTATSDPKQLSKLEKQQQRKEKTRAKGPSESSKERNTPRKEDRSASSGAEGDVSSEREP

>  <soluble on expression in E. coli>
soluble

$$$$
>  <sequence-code>
MGSDKIHHHHHHMSVECFVTGGSGFVGQHLLAGLTAQGHKTWVLMRSPGNIERLKEQVGQLGGNPEYIHAVEGDISQEGLGLSEADKERVTSAAVFFHLAAQFSWGLTPERARTVNVQGALSVARLAASQRIRLLMVGGFMLQNLNHLASIGVDTQCPENTNWPAVYARVGGYEGSKLESHFAVIRYMQDADADYTIVHPATVCGHSENGHILDGQPLAELIRNLAQGRFKAIPGSASHWLPLVSVDYLVKMITCVAFDPSMANRQVLALYERTPNLQGMLGQIADTLKVKAPHRHIPIGLLRSILTIPGLATRLAISAESLNFIQTQRFDMGNSRQLERKYQFTHPDMTQALENTVRYVNGSLMKKSKSEGAGQRG

>  <soluble on expression in E. coli>
not soluble

$$$$
>  <sequence-code>
MGSDKIHHHHHHMEKQEIIEKLVELKDRLIEDVYQAYSRNTSDYGHERYNAWKKSVTKFLNQYIPNEVQRFNEKANPTYGVFLRRNGMSYHDFFWKTDGSAMNAYLESLILDIQNDDYDFTPINKEVQDVKTIPEAKSKKVLIVHGHDEAAKYRTEAFLRKHGFDPIILHLNASKGDTIIKKLERLAEGVGYGIVLYTPDDMGETKVKAVQHELQPRARQNVVFEHGYLMGLIGRPNVAAIVEGYVEKPSDIDGVVYIPSSNWEIDLLRELHEAGYPINPANL

>  <soluble on expression in E. coli>
not soluble

$$$$
>  <sequence-code>
MAHHHHHHMDIIKNETKEMDMYNPSVSINFEKGILKNSCDTPKDTKLEKLKREYNILTSSYDYNSGNKKERRNIWKEKVKHNIASKNKKKMVKIKKEENNNELENKKGENLLMYVNDKNSNLNVYIDENDLFEETPNISSNTLLSYISNIFLRKKNIYEIKKCDFIKEVNTDESLKRNFIPPVDILYDDKKVLFLFFISGNLQNFHVTSNNNYLTISGEKIPYQVQDHTSYFSHEIKKGYFIRTYCFMKTFDKEKIYYEQNNGVIKIYVYICDDNNI

>  <soluble on expression in E. coli>
not soluble

$$$$

Switching to the query record.
**Query** Answer with the recorded soluble on expression in E. coli for the sequence listed here: MLTSEIAACCKKLRLSRNIVEMSGKIQADNHQEYLLKLLKSEIIHREKTRNAKLLRKAGFYTIKTFESFRFDEVTLPGDITPEYLKECEFVKNKTNIVMYGNVGTGKTHLSIALGVEACKRGYEVRFFRTSALVNKLAEEKRVGTLSSFLKKLNKAELLICDEWRYVPLDRIGAQLLFEVISERYENKAVIINTNIEFSRWVNIFYDEQMTGAIVDRILHHCHLLLFFGQSNRMRESRLNT
**Result** not soluble
